# reported viability, T/C; entries follow
- Tested on: 126254-015-R-J1-PDC complex spheroid growth, % test/control
- test description: Anticancer human tumor 126254-015-R-J1-PDC patient-derived soft tissue sarcoma cell line growth inhibition [Asc]
- condition parameters: second compound 0.1 µM; first compound 0.03 µM; stronger effect = lower value
readout label: viability, T/C (%)

molecule	readout label	measure unit	readout number
Cc1nc(N2CCC3(CC2)COC(C)C3N)c(CO)nc1Sc1ccnc(N)c1Cl (stereo unspecified) + CNC(C)C(=O)NC1CN(S(=O)(=O)c2cccc(S(=O)(=O)N3CCC4CCC(C(=O)NC(c5ccccc5)c5ccccc5)N4C(=O)C(NC(=O)C(C)NC)C3)c2)CCC2CCC(C(=O)NC(c3ccccc3)c3ccccc3)N2C1=O	viability, T/C	%	63
CCN1C(C(=O)NC23CCC(C(=O)O)(CC2)CC3)C(c2cccc(Cl)c2F)C2(C(=O)Nc3cc(Cl)ccc32)C12CCCCC2 (stereo unspecified) + CNC(C)C(=O)NC1CN(S(=O)(=O)c2cccc(S(=O)(=O)N3CCC4CCC(C(=O)NC(c5ccccc5)c5ccccc5)N4C(=O)C(NC(=O)C(C)NC)C3)c2)CCC2CCC(C(=O)NC(c3ccccc3)c3ccccc3)N2C1=O	viability, T/C	%	70
Cc1nc(N2CCC3(CC2)COC(C)C3N)c(CO)nc1Sc1ccnc(N)c1Cl (stereo unspecified) + Cc1c(S(C)(=O)=O)c(-c2cc(F)cc(N3CCN(c4ccc(NS(=O)(=O)c5ccc(NC(CCN6CCC(C(=O)OCCCP(=O)(O)O)CC6)CSc6ccccc6)c(S(=O)(=O)C(F)(F)F)c5)cc4)CC3)c2)c(-c2ccc(Cl)cc2)n1C(C)C	viability, T/C	%	82.2
NC(=O)C(=Cn1cnc(-c2cc(C(F)(F)F)cc(C(F)(F)F)c2)n1)c1cncnc1 + Cc1c(S(C)(=O)=O)c(-c2cc(F)cc(N3CCN(c4ccc(NS(=O)(=O)c5ccc(NC(CCN6CCC(C(=O)OCCCP(=O)(O)O)CC6)CSc6ccccc6)c(S(=O)(=O)C(F)(F)F)c5)cc4)CC3)c2)c(-c2ccc(Cl)cc2)n1C(C)C	viability, T/C	%	53.2
NC(=O)C(=Cn1cnc(-c2cc(C(F)(F)F)cc(C(F)(F)F)c2)n1)c1cncnc1 + CNC(C)C(=O)NC1CN(S(=O)(=O)c2cccc(S(=O)(=O)N3CCC4CCC(C(=O)NC(c5ccccc5)c5ccccc5)N4C(=O)C(NC(=O)C(C)NC)C3)c2)CCC2CCC(C(=O)NC(c3ccccc3)c3ccccc3)N2C1=O	viability, T/C	%	48.9
CCN1C(C(=O)NC23CCC(C(=O)O)(CC2)CC3)C(c2cccc(Cl)c2F)C2(C(=O)Nc3cc(Cl)ccc32)C12CCCCC2 (stereo unspecified) + Cc1c(S(C)(=O)=O)c(-c2cc(F)cc(N3CCN(c4ccc(NS(=O)(=O)c5ccc(NC(CCN6CCC(C(=O)OCCCP(=O)(O)O)CC6)CSc6ccccc6)c(S(=O)(=O)C(F)(F)F)c5)cc4)CC3)c2)c(-c2ccc(Cl)cc2)n1C(C)C	viability, T/C	%	85.1

---

# reported viability, T/C; entries follow
- Tested on: 126254-015-R-J1-PDC complex spheroid growth, % test/control
- test description: Anticancer human tumor 126254-015-R-J1-PDC cell line growth inhibition [Asc];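 further: spheroids exposed to compound for seven days; 100% = DMSO vehicle control wells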
- condition parameters: second compound 3 µM; first compound 1 µM; stronger effect = lower value
readout label: viability, T/C

molecule	readout label	result
C=C(F)C(=O)N1CCN(c2nc(OCC3CCCN3C)nc3c2CCN(c2cccc4cccc(Cl)c24)C3)CC1CC#N (stereo not drawn) + CCN1C(C(=O)NC23CCC(C(=O)O)(CC2)CC3)C(c2cccc(Cl)c2F)C2(C(=O)Nc3cc(Cl)ccc32)C12CCCCC2	viability, T/C	98.9%
CCN1CCN(Cc2ccc(Nc3ncc(F)c(-c4cc(F)c5nc(C)n(C(C)C)c5c4)n3)nc2)CC1 + CCN1C(C(=O)NC23CCC(C(=O)O)(CC2)CC3)C(c2cccc(Cl)c2F)C2(C(=O)Nc3cc(Cl)ccc32)C12CCCCC2	viability, T/C	104%
COc1c(OCCCN2CCOCC2)ccc2c3n(c(=NC(=O)c4cnc(N)nc4)nc12)CCN3 + CCN1C(C(=O)NC23CCC(C(=O)O)(CC2)CC3)C(c2cccc(Cl)c2F)C2(C(=O)Nc3cc(Cl)ccc32)C12CCCCC2	viability, T/C	10.9%
CNC(C)C(=O)NC1CN(S(=O)(=O)c2cccc(S(=O)(=O)N3CCC4CCC(C(=O)NC(c5ccccc5)c5ccccc5)N4C(=O)C(NC(=O)C(C)NC)C3)c2)CCC2CCC(C(=O)NC(c3ccccc3)c3ccccc3)N2C1=O (stereo not drawn) + CCN1C(C(=O)NC23CCC(C(=O)O)(CC2)CC3)C(c2cccc(Cl)c2F)C2(C(=O)Nc3cc(Cl)ccc32)C12CCCCC2	viability, T/C	59.2%
C#Cc1c(F)ccc2cc(O)cc(-c3ncc4c(N5CC6CCC(C5)N6)nc(OCC56CCCN5CC(F)C6)nc4c3F)c12 (stereo not drawn) + CCN1C(C(=O)NC23CCC(C(=O)O)(CC2)CC3)C(c2cccc(Cl)c2F)C2(C(=O)Nc3cc(Cl)ccc32)C12CCCCC2	viability, T/C	98.6%
O=C(c1ccc(F)c(F)c1Nc1ccc(I)cc1F)N1CC(O)([C@@H]2CCCCN2)C1 + CCN1C(C(=O)NC23CCC(C(=O)O)(CC2)CC3)C(c2cccc(Cl)c2F)C2(C(=O)Nc3cc(Cl)ccc32)C12CCCCC2	viability, T/C	38.2%
C=CC(=O)N1CCN(c2nc(=O)n(-c3c(C)ccnc3C(C)C)c3nc(-c4c(O)cccc4F)c(F)cc23)C(C)C1 (stereo not drawn) + CCN1C(C(=O)NC23CCC(C(=O)O)(CC2)CC3)C(c2cccc(Cl)c2F)C2(C(=O)Nc3cc(Cl)ccc32)C12CCCCC2	viability, T/C	109%
O=C(c1cc(Cc2n[nH]c(=O)c3ccccc23)ccc1F)N1CCN(C(=O)C2CC2)CC1 + CCN1C(C(=O)NC23CCC(C(=O)O)(CC2)CC3)C(c2cccc(Cl)c2F)C2(C(=O)Nc3cc(Cl)ccc32)C12CCCCC2	viability, T/C	85.4%

---

- Test system: 126254-015-R-J1-PDC complex spheroid growth, % test/control
- test description: Anticancer human tumor 126254-015-R-J1-PDC cell line growth inhibition [Asc];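 further: spheroids exposed to compound for seven days; 100% = DMSO vehicle control wells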
- condition parameters: second compound 3.16 µM; first compound 0.0316 µM; stronger effect = lower value
# reported viability, T/C; entries follow

compound	viability, T/C, %
O=C(c1cc(Cc2n[nH]c(=O)c3ccccc23)ccc1F)N1CCN(C(=O)C2CC2)CC1 + Cc1c(S(C)(=O)=O)c(-c2cc(F)cc(N3CCN(c4ccc(NS(=O)(=O)c5ccc(NC(CCN6CCC(C(=O)OCCCP(=O)(O)O)CC6)CSc6ccccc6)c(S(=O)(=O)C(F)(F)F)c5)cc4)CC3)c2)c(-c2ccc(Cl)cc2)n1C(C)C	75
C#Cc1c(F)ccc2cc(O)cc(-c3ncc4c(N5CC6CCC(C5)N6)nc(OCC56CCCN5CC(F)C6)nc4c3F)c12 (configuration not stated) + Cc1c(S(C)(=O)=O)c(-c2cc(F)cc(N3CCN(c4ccc(NS(=O)(=O)c5ccc(NC(CCN6CCC(C(=O)OCCCP(=O)(O)O)CC6)CSc6ccccc6)c(S(=O)(=O)C(F)(F)F)c5)cc4)CC3)c2)c(-c2ccc(Cl)cc2)n1C(C)C	82.6
CCN1CCN(Cc2ccc(Nc3ncc(F)c(-c4cc(F)c5nc(C)n(C(C)C)c5c4)n3)nc2)CC1 + Cc1c(S(C)(=O)=O)c(-c2cc(F)cc(N3CCN(c4ccc(NS(=O)(=O)c5ccc(NC(CCN6CCC(C(=O)OCCCP(=O)(O)O)CC6)CSc6ccccc6)c(S(=O)(=O)C(F)(F)F)c5)cc4)CC3)c2)c(-c2ccc(Cl)cc2)n1C(C)C	90.1
CNC(C)C(=O)NC1CN(S(=O)(=O)c2cccc(S(=O)(=O)N3CCC4CCC(C(=O)NC(c5ccccc5)c5ccccc5)N4C(=O)C(NC(=O)C(C)NC)C3)c2)CCC2CCC(C(=O)NC(c3ccccc3)c3ccccc3)N2C1=O (configuration not stated) + Cc1c(S(C)(=O)=O)c(-c2cc(F)cc(N3CCN(c4ccc(NS(=O)(=O)c5ccc(NC(CCN6CCC(C(=O)OCCCP(=O)(O)O)CC6)CSc6ccccc6)c(S(=O)(=O)C(F)(F)F)c5)cc4)CC3)c2)c(-c2ccc(Cl)cc2)n1C(C)C	60.7
NC1CCC(NC2CC2c2ccccc2)CC1 (configuration not stated) + Cc1c(S(C)(=O)=O)c(-c2cc(F)cc(N3CCN(c4ccc(NS(=O)(=O)c5ccc(NC(CCN6CCC(C(=O)OCCCP(=O)(O)O)CC6)CSc6ccccc6)c(S(=O)(=O)C(F)(F)F)c5)cc4)CC3)c2)c(-c2ccc(Cl)cc2)n1C(C)C	62.3
O=C(c1ccc(F)c(F)c1Nc1ccc(I)cc1F)N1CC(O)([C@@H]2CCCCN2)C1 + Cc1c(S(C)(=O)=O)c(-c2cc(F)cc(N3CCN(c4ccc(NS(=O)(=O)c5ccc(NC(CCN6CCC(C(=O)OCCCP(=O)(O)O)CC6)CSc6ccccc6)c(S(=O)(=O)C(F)(F)F)c5)cc4)CC3)c2)c(-c2ccc(Cl)cc2)n1C(C)C	75.5
C=C(F)C(=O)N1CCN(c2nc(OCC3CCCN3C)nc3c2CCN(c2cccc4cccc(Cl)c24)C3)CC1CC#N (configuration not stated) + Cc1c(S(C)(=O)=O)c(-c2cc(F)cc(N3CCN(c4ccc(NS(=O)(=O)c5ccc(NC(CCN6CCC(C(=O)OCCCP(=O)(O)O)CC6)CSc6ccccc6)c(S(=O)(=O)C(F)(F)F)c5)cc4)CC3)c2)c(-c2ccc(Cl)cc2)n1C(C)C	88.3
